biological target: STK4 (human) (UniProt Q13043); experiment: radiometric filter-binding kinase assay, Kinase HotSpot; details: compound 0.5 µM; ATP 10 µM
Sequence (Q13043 whole entry, looked up): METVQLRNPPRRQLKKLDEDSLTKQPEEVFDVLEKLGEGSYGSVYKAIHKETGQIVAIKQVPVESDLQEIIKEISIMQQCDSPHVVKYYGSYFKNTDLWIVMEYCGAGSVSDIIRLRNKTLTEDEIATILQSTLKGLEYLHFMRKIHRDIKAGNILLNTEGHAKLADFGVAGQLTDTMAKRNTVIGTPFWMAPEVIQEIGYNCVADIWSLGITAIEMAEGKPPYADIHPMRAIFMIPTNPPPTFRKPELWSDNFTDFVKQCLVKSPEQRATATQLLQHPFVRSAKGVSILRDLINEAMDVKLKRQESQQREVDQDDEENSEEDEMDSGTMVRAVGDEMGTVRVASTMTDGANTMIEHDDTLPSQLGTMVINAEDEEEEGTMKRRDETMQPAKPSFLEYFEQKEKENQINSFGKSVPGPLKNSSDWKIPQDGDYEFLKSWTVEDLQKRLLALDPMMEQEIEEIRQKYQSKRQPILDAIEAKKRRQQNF
I would appreciate it if you labelled entries t when residual activity is 90% or higher, otherwise f.

Asked: Item O=c1c2ccccc2[nH]c(=S)n1CCN1CCC(=C(c2ccc(F)cc2)c2ccc(F)cc2)CC1 with residual activity of 90% or above?
Given back: t

Asked: Can N/C(=N\N=C/c1ccc(-c2cccc([N+](=O)[O-])c2)o1)N[N+](=O)[O-] be said to have residual activity at or above 90%?
Given back: t

Asked: Does the reported residual activity for CN[C@@H]1C[C@H]2O[C@@](C)([C@@H]1OC)n1c3ccccc3c3c4c(c5c6ccccc6n2c5c31)C(=O)NC4 fall at or above the 90% mark?
Given back: f

Asked: Identify whether the reported residual activity of the following compound is 90% or greater: N#CCCc1ccc2c(c1)-c1[nH]c3ccc([N+](=O)[O-])cc3c1CC(=O)N2
Given back: f

Asked: Assess whether reported residual activity for CCc1nc(-c2ccc(OC)cc2)[nH]c1-c1ccncc1 sits at 90% or higher.
Given back: t

Asked: For this compound, is measured residual activity 90% or higher? O=C1NC(=O)c2c1c1c3ccccc3[nH]c1c1[nH]c3cc(Br)ccc3c21
Given back: f

Asked: Is the recorded value of residual activity equal to or greater than 90% for this compound? O=C(c1ccccc1)c1ccc(N2CCOCC2)cc1O
Given back: t

Asked: # check: residual activity of COc1cc2c(Nc3ccc(Br)cc3F)ncnc2cc1OCC1CCN(C)CC1 is greater than or equal to 90%
Given back: t

---

target: JAK3 JH1 JH2 (human) (UniProt P52333); assay: radiometric filter-binding kinase assay, Kinase HotSpot; conditions: compound 0.5 µM; ATP 10 µM
Sequence (P52333 whole entry, looked up): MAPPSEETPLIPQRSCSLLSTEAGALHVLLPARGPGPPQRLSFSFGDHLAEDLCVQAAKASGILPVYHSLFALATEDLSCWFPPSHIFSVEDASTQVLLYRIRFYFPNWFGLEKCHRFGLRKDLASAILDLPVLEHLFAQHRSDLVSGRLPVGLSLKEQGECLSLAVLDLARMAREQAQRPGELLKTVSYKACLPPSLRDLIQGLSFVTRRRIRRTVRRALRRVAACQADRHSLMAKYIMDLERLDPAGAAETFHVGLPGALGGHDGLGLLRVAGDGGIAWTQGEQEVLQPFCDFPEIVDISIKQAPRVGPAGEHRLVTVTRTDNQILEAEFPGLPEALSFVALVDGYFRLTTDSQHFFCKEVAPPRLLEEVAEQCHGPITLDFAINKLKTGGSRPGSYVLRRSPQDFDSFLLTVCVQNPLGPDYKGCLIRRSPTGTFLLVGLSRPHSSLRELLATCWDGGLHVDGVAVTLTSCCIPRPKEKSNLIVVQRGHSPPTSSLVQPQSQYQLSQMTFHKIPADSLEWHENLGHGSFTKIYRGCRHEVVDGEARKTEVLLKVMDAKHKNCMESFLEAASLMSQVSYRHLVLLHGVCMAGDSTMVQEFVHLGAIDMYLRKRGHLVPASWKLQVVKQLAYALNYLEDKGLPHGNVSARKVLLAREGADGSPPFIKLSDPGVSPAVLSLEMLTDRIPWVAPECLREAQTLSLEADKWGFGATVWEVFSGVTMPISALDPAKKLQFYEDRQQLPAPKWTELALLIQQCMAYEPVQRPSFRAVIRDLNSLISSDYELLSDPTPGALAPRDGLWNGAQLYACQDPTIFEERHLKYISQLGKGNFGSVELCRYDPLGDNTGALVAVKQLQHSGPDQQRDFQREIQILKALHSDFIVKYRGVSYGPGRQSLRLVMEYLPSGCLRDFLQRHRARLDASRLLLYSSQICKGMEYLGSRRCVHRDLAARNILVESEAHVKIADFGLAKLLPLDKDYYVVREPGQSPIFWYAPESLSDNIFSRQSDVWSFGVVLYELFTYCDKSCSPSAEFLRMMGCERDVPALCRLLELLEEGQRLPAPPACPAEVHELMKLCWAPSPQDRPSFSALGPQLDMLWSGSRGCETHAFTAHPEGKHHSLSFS
Exercise: state measured residual activity for each of the compounds provided.
Numbers only here, please. The scale is %.

Asked: Note down residual activity recorded for CCc1nc(-c2ccc(OC)cc2)[nH]c1-c1ccncc1
Given back: 96.1

Asked: Find the measured residual activity of O=C(c1ccccc1)c1ccc(N2CCOCC2)cc1O and report it.
Given back: 103

Asked: Please give measured residual activity of the following entry: COc1cccc(-c2cc(=O)c3ccccc3o2)c1N
Given back: 96.9

Asked: State its residual activity for this compound: Cn1cc(/C=C2\C(=O)Nc3ccc(S(N)(=O)=O)cc32)c2ccccc21
Given back: 43.7

Asked: Please give measured residual activity of the following entry: COc1cc2c(cc1OC)-c1[nH]nc(Nc3cccc(F)c3)c1C2
Given back: 98.6

Asked: Give recorded residual activity. N#Cc1c(NC(=O)c2cccc3ccccc23)sc2c1CCCC2
Given back: 101

Asked: Fill in reported residual activity for this entry: c1ccc(-c2cnc(Nc3ccc(OCCN4CCCC4)cc3)s2)cc1
Given back: 108

Asked: Note residual activity for the compound shown: COc1cc2c(Nc3ccc(Br)cc3F)ncnc2cc1OCC1CCN(C)CC1
Given back: 96

Asked: Determine its reported residual activity: N#CCCc1ccc2c(c1)-c1[nH]c3ccc([N+](=O)[O-])cc3c1CC(=O)N2
Given back: 101

Asked: Return the recorded residual activity value; entry: FC(F)(F)c1ccc(/C=C/c2nc(COc3ccc(CCCCn4ccnn4)cc3)co2)cc1
Given back: 93

Asked: Give the measured residual activity for O=C1NC(=O)c2c1c1c3ccccc3[nH]c1c1[nH]c3cc(Br)ccc3c21
Given back: 77

Asked: // fetch residual activity given entry COc1cc2ncnc(Nc3ccc(O)c(Br)c3)c2cc1OC
Given back: 100

Asked: Report residual activity for O=c1c2ccccc2[nH]c(=S)n1CCN1CCC(=C(c2ccc(F)cc2)c2ccc(F)cc2)CC1
Given back: 104

Asked: Tell me measured residual activity for O=C(O)c1ccc2c3c1cccc3c(=O)n1c3ccccc3nc21 please.
Given back: 46.9

Asked: State its residual activity for this compound: N#C/C(=C1/Nc2ccccc2S1)c1ccnc(NCCc2cccnc2)n1
Given back: 106

Asked: Please report the measured residual activity for CCOc1cc2ncnc(Nc3cccc(Br)c3)c2cc1OCC
Given back: 102

---

target: PRKCZ (human) (UniProt Q05513); assay: radiometric filter-binding kinase assay, Kinase HotSpot; settings: compound 0.5 µM; ATP 10 µM
Sequence (Q05513 whole entry, looked up): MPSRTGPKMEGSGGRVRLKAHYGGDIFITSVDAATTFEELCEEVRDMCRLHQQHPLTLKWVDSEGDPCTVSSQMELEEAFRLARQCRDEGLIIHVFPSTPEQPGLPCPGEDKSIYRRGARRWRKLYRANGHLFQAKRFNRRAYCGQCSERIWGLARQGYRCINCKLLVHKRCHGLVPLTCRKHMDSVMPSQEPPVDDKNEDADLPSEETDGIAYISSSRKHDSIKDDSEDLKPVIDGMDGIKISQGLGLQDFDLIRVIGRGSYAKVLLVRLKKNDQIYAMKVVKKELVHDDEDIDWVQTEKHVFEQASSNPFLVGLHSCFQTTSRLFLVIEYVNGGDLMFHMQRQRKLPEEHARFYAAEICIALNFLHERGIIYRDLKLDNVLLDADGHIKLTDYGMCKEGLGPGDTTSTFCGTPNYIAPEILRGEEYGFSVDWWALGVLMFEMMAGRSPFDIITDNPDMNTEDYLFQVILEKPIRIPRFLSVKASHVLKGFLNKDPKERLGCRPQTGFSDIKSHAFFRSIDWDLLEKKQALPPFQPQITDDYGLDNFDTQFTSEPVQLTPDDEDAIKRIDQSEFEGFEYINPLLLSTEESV
Provide the reported residual activity of each item.
Respond with the bare value in %.

Asked: Report residual activity for O=C(O)c1ccc2c3c1cccc3c(=O)n1c3ccccc3nc21
Given back: 94.3

Asked: Identify residual activity associated with the compound O=S(=O)(NCCNC/C=C/c1ccc(Br)cc1)c1cccc2cnccc12
Given back: 79.8

Asked: Please supply the value of reported residual activity for the item COc1cc2c(Nc3ccc(Br)cc3F)ncnc2cc1OCC1CCN(C)CC1
Given back: 97.8

Asked: Tell me measured residual activity for N#Cc1c(NC(=O)c2cccc3ccccc23)sc2c1CCCC2 please.
Given back: 102

Asked: Using known records, supply residual activity for CCCCc1c(-c2ccc(O)cc2)[nH]c2nccnc12
Given back: 97.4

Asked: Please give measured residual activity of the following entry: Nc1ncnc2c1cnn2-c1ccccc1
Given back: 96.3

Asked: Give residual activity for the following compound: COc1cc2c(cc1OC)-c1[nH]nc(Nc3cccc(F)c3)c1C2
Given back: 99.7

Asked: Give the value of residual activity reported for the following: O=C1NC(=O)c2cc(Nc3ccc(F)cc3)c(Nc3ccc(F)cc3)cc21
Given back: 100

Asked: Supply measured residual activity of FC(F)(F)c1ccc(/C=C/c2nc(COc3ccc(CCCCn4ccnn4)cc3)co2)cc1 in your reply.
Given back: 101

Asked: State its residual activity for this compound: COc1cc2ncnc(Nc3ccc(O)c(Br)c3)c2cc1OC
Given back: 93

Asked: Note residual activity for the compound shown: COc1cccc(-c2cc(=O)c3ccccc3o2)c1N
Given back: 99.1

Asked: Quote residual activity reported for CCc1nc(-c2ccc(OC)cc2)[nH]c1-c1ccncc1 please.
Given back: 107

Asked: Tell us which residual activity value is on record for O=C1NC(=O)c2c1c1c3ccccc3[nH]c1c1[nH]c3cc(Br)ccc3c21
Given back: 91.8

---

target: GRK4 (human) (UniProt P32298); test: radiometric filter-binding kinase assay, Kinase HotSpot; conditions: compound 0.5 µM; ATP 10 µM
Sequence (P32298 whole entry, looked up): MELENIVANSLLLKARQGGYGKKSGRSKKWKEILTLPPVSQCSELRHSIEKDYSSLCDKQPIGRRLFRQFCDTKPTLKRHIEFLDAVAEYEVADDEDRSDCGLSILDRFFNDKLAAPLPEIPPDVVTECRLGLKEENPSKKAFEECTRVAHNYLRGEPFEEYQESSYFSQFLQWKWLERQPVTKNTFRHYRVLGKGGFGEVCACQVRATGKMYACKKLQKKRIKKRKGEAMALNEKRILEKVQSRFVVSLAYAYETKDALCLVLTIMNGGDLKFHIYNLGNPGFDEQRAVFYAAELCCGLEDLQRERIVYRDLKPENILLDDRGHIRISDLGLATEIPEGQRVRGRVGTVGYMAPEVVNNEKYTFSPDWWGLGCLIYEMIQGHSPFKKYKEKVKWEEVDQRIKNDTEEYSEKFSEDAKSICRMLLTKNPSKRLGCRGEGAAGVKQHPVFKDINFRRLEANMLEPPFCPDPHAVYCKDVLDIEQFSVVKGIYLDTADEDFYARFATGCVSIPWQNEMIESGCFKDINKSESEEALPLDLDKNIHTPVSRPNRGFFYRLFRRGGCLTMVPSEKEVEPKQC
endpoint: residual activity (%)
Quick note: give the figure in %, leave out the unit.

Asked: Specify reported residual activity for the molecule shown: N#C/C(=C1/Nc2ccccc2S1)c1ccnc(NCCc2cccnc2)n1
Given back: 103

Asked: Identify measured residual activity associated with Cc1cc(Nc2nc(-c3ccccc3)nc3ccccc23)n[nH]1
Given back: 92.1

Asked: Return the recorded residual activity value; entry: COc1cc2c(cc1OC)-c1[nH]nc(Nc3cccc(F)c3)c1C2
Given back: 97.1

Asked: Report residual activity, nothing else, for this molecule: CCOc1cc2ncnc(Nc3cccc(Br)c3)c2cc1OCC
Given back: 96.2

Asked: Output measured residual activity for this item: O=C(O)c1ccc2c3c1cccc3c(=O)n1c3ccccc3nc21
Given back: 95.5

Asked: Give recorded residual activity. CCCCc1c(-c2ccc(O)cc2)[nH]c2nccnc12
Given back: 101

Asked: Please indicate residual activity recorded for COc1cc2ncnc(Nc3ccc(O)c(Br)c3)c2cc1OC
Given back: 105

Asked: Write down residual activity measured for item N#Cc1c(NC(=O)c2cccc3ccccc23)sc2c1CCCC2
Given back: 110

Asked: Could you please provide reported residual activity for N#CCCc1ccc2c(c1)-c1[nH]c3ccc([N+](=O)[O-])cc3c1CC(=O)N2 ? Thanks!
Given back: 101

Asked: For O=c1c(-c2ccc(F)cc2)c(-c2ccncc2)[nH]n1-c1ccc(Cl)cc1 , write its residual activity.
Given back: 97.9

---

biological target: TSSK2 (human); experiment: radiometric filter-binding kinase assay, Kinase HotSpot; conditions: compound 0.5 µM; ATP 10 µM
Please go through the items and note down their residual activity.
State just the number; it will be interpreted in %.

Asked: Using the record for CCOc1cc2ncnc(Nc3cccc(Br)c3)c2cc1OCC , state its measured residual activity.
Given back: 104

Asked: Kindly indicate its recorded residual activity. Item: COc1cc2c(cc1OC)-c1[nH]nc(Nc3cccc(F)c3)c1C2
Given back: 75.1

Asked: Hello, please tell me recorded residual activity for this one: Cn1cc(/C=C2\C(=O)Nc3ccc(S(N)(=O)=O)cc32)c2ccccc21
Given back: 84

Asked: Consider the compound O=c1cc(N2CCOCC2)oc2c(-c3ccccc3)cccc12 and give its recorded residual activity.
Given back: 91.4

Asked: # return recorded residual activity for input COc1cc2c(N3CCN(C(=O)Nc4ccc(OC(C)C)cc4)CC3)ncnc2cc1OCCCN1CCCCC1
Given back: 96.6

Asked: // Input: FC(F)(F)c1ccc(/C=C/c2nc(COc3ccc(CCCCn4ccnn4)cc3)co2)cc1 . Output its residual activity only.
Given back: 100

Asked: Provide measured residual activity value, entry: COc1cc2ncnc(Nc3ccc(O)c(Br)c3)c2cc1OC
Given back: 98.7

Asked: # return recorded residual activity for input COc1cccc(-c2cc(=O)c3ccccc3o2)c1N
Given back: 79.7

Asked: Specify measured residual activity for CCCCc1c(-c2ccc(O)cc2)[nH]c2nccnc12 .
Given back: 96.7

Asked: Note down residual activity recorded for O=C1NC(=O)c2cc(Nc3ccc(F)cc3)c(Nc3ccc(F)cc3)cc21
Given back: 97.2

Asked: Item O=c1[nH]c2ccccc2n1C1CCN(Cc2ccc(-c3nc4cc5[nH]cnc5cc4nc3-c3ccccc3)cc2)CC1 : provide residual activity
Given back: 96.2

Asked: Let me know recorded residual activity for COc1cc2c(Nc3ccc(Br)cc3F)ncnc2cc1OCC1CCN(C)CC1 , thanks.
Given back: 95.9

Asked: Provide measured residual activity value, entry: O=C(O)c1ccc2c3c1cccc3c(=O)n1c3ccccc3nc21
Given back: 106

Asked: Assign residual activity to the following record: Nc1ncnc2c1cnn2-c1ccccc1
Given back: 106

Asked: Give recorded residual activity. N/C(=N\N=C/c1ccc(-c2cccc([N+](=O)[O-])c2)o1)N[N+](=O)[O-]
Given back: 101

Asked: Complete the entry with residual activity for O=C(c1ccccc1)c1ccc(N2CCOCC2)cc1O
Given back: 104

Hello, the source for this data is the kinase profiling compilation of Christmann-Franck et al. (2016), in case you need it.
